Value source: patent US20190077863A1

- Target: T1, Human VE-PTP (HPTP-β) containing first eight FN3 repeats with C-terminal His6 tag (Human ½ VE-PTP ECD) (human, UniProt P23467 23-820)
- T1 construct: Produced in HEK293 cells and purified by the His tag; it was not cut off; also called Human Beta ½ ECD
- T1 sequence: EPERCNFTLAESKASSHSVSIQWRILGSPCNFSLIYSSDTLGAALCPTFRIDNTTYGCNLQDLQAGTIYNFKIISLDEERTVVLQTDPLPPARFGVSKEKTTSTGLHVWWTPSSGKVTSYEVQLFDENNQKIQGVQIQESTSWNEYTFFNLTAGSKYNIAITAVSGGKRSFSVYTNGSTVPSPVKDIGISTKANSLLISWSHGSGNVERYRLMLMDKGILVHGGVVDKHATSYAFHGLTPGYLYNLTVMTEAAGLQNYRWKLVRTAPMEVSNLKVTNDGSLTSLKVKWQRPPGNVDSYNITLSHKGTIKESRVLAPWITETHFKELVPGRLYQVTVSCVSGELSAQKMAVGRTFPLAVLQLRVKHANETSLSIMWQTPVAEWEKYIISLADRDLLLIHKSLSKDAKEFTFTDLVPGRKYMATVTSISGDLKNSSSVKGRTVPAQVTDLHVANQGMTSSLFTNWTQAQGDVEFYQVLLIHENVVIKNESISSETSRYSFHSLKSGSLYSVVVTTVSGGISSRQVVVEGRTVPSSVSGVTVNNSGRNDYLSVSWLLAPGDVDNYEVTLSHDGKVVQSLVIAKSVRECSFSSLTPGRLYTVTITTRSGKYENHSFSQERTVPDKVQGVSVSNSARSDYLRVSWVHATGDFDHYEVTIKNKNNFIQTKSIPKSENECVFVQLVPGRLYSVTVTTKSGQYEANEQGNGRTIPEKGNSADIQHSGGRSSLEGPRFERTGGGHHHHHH
- Assay info: SPR (Biacore 3000), antibody captured on anti-human IgG, antigen as analyte 25-0 nM
Readout type: koff (s⁻¹)

>>> numeric_value("humanized R15E6 variant HC2LC2 (antibody, human IgG4 S228P, kappa, V domains shown, Human IgG4 (S228P) / kappa, expressed in CHO cells; Signal peptides left out by range; also called VH2-VL2) VH: EVQLVESGGGLVQPGGSLRLSCAASGFTFNANAMNWVRQAPGKGLEWVGRIRTKSNNYATYYAGSVKDRFTISRDDSKNSLYLQMNSLKTEDTAVYYCVRDYYGSSAWITYWGQGTLVTVSS VL: DIVMTQSPDSLAVSLGERATINCKASQHVGTAVAWYQQKPGQPPKLLIYWASTRHTGVPDRFSGSGSGTDFTLTISSLQAEDVAVYYCQQYSSYPFTFGQGTKLEIKR")
0.00215
>>> numeric_value("humanized R15E6 variant HC3LC2 (antibody, human IgG4 S228P, kappa, V domains shown, Human IgG4 (S228P) / kappa, expressed in CHO cells; Signal peptides left out by range; also called VH3-VL2) VH: EVQLVESGGGLVQPGRSLRLSCTASGFTFNANAMNWVRQAPGKGLEWVGRIRTKSNNYATYYAGSVKDRFTISRDDSKNIAYLQMNSLKTEDTAVYYCVRDYYGSSAWITYWGQGTLVTVSS VL: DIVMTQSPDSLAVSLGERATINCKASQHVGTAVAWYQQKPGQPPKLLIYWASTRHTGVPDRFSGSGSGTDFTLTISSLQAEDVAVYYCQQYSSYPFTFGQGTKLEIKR")
0.00123
>>> numeric_value("humanized R15E6 variant HC2LC3 (antibody, human IgG4 S228P, kappa, V domains shown, Human IgG4 (S228P) / kappa, expressed in CHO cells; Signal peptides left out by range; also called VH2-VL3) VH: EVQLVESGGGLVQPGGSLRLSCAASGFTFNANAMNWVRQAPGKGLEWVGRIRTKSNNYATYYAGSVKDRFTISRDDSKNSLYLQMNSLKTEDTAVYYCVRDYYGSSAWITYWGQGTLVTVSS VL: DIQMTQSPFSLSASVGDRVTITCKASQHVGTAVAWYQQKPGKAPKLLIYWASTRHTGVPSRFSGSGSGTDFTLTISSLQPEDFATYFCQQYSSYPFTFGGGTKLEIKR")
0.00123
>>> numeric_value("humanized R15E6 variant HC3LC4 (antibody, human IgG4 S228P, kappa, V domains shown, Human IgG4 (S228P) / kappa, expressed in CHO cells; Signal peptides left out by range; also called VH3-VL4) VH: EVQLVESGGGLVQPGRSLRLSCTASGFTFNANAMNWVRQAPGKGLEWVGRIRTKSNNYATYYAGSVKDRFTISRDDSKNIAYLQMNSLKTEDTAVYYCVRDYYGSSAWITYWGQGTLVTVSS VL: DIVMTQSPDSLAVSLGERATINCKASQHVGTAVAWYQQKPEQPPKLLIYWASTRHTGVPDRFSGSGSGTDFTLTISSLQAEDVAVYYCQQYSSYPFTFGGGTKVEIKR")
0.00109
